- test_target: pre-pro-insulin glargine
measure_name: Yield

Consider the following illustrative entries.
>  <protein>
trypsin variant SEQ ID NO: 94 (protein) IVGGYTCAANSIPYQVSLNSGSHRCGGSLINSQWVVSAAHCYKPRIQVRLGEHNIHVLEGNEQFINAAKIITHPNFNGNTLDNDIMLIKLSSPATLNSNVATVSLPRSCAAAGTECLISGWGNTCSSGSSMPSLLQCLKAPVLSDSSCKSSYPGQITGNMICVGFLEGGADACQGDSGGPVVCNGQLQGIVSSGYGCAQKNKPGVYTKVCNYVNWIQQTIAAN

>  <result>
> 90%

$$$$
>  <protein>
trypsin variant SEQ ID NO: 11 (protein) IVGGYTCAANSIPYQVSLNSGSHRCGGSLINSQWVVSAAHCYKSRIQVRLGEHNIDVLEGNEQFINAAKIITHPNFNGNTLDNDIMLIKLSSPATLNSNVATVSLPRSCAAAGTECLISGWGNTKSSGSSYPSLLQCLKAPVLSDSSCKSSYPGQITGNMICVGFLEGGKDACQGDSGGPVVCNGQLQGIVSSGYGCAQKNKPGVYTKVCNYVNWIQQTIAAN

>  <result>
> 90%

$$$$

Please examine the following record next.
Given the entry trypsin variant SEQ ID NO: 10 (protein) IVGGYTCAANSIPYQVSLNSGSHRCGGSLINSQWVVSAAHCYKSRIQVRLGEHNIDVLEGNEQFINAAKIITHPNFNGNTLDNDIMLIKLSSPATLNSTVATVSLPRSCAAAGTECLISGWGNTKSSGSSYPSLLQCLKAPVLSDSSCKSSYPGQITGNMICVGFLEGGKDACQGDSGGPVVCNGQLQGIVSSGYGCAQKNKPGVYTKVCNYVNWIQQTIAAN , report its measured Yield.
> 90%
